Measured on: NTCP (Homo sapiens, UniProt Q14973)
Construct: expressed in transfected cells
Sequence (Q14973 whole entry): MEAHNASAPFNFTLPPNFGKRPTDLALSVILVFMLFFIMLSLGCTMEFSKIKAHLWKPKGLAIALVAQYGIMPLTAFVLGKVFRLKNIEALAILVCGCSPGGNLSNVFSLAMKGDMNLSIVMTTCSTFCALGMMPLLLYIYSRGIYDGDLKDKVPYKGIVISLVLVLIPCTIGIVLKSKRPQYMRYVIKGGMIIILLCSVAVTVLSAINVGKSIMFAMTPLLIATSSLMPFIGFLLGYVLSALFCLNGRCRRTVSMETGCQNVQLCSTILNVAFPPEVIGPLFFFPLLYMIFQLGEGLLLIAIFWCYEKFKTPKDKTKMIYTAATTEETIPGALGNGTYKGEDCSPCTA
Method summary: [3H]TC transport (bile acid uptake) inhibition in NTCP-HEK293 cells
Format: cell-based
Stated conditions: pH shift experiment, pH 7.4; read-out: IC50 [3H]TC uptake inhibition at pH 7.4
Measured parameter: pIC50
pIC50 (log units): -log10 of the concentration in mol/L.

Query: # input compound: C=C(C)[C@@H]1CC[C@]2(COC(=O)CCC(=O)O)CC[C@]3(C)[C@H](CC[C@@H]4[C@@]5(C)CC[C@H](O)C(C)(C)[C@@H]5CC[C@]43C)[C@@H]12 ; wanted: its pIC50
Response: 5.10

---

Measured on: NTCP (Homo sapiens, UniProt Q14973)
Construct: expressed in transfected cells
Method summary: [3H]TC transport (bile acid uptake) inhibition in NTCP-HEK293 cells
Type: cell-based
Stated conditions: 95% confidence interval; inhibition of 1 µM [3H]TC uptake; NTCP-HEK293 cells; 10 min, 37 °C; read-out: IC50 ([3H]TC uptake)
Measured parameter: IC50

// solved cases for IC50 follow
C=C(C)[C@@H]1CC[C@]2(CO)CC[C@]3(C)[C@H](CC[C@@H]4[C@@]5(C)CC[C@H](OC(C)=O)C(C)(C)[C@@H]5CC[C@]43C)[C@@H]12 [Compound 22, 3-O-Acetylbetulin] | 36.5 to 152 µM
C=C(C)[C@@H]1CC[C@]2(C(=O)O)CC[C@]3(C)[C@H](CC[C@@H]4[C@@]5(C)CC[C@H](OC(=O)CC(C)(C)CC(=O)O)C(C)(C)[C@@H]5CC[C@]43C)[C@@H]12 [Compound 11] | 3.08 to 4.53 µM
C=C(C)C1CCC2(COC(C)=O)CCC3(C)C(CCC4C5(C)CCC(OC(C)=O)C(C)(C)C5CCC43C)C12 (centres unmarked) [Compound 24, 3,28-Di-O-acetylbetulin] | > 1000 µM
C=C(C)[C@@H]1CC[C@]2(COC(=O)/C=C/c3ccccc3)CC[C@]3(C)[C@H](CC[C@@H]4[C@@]5(C)CC[C@H](O)C(C)(C)[C@@H]5CC[C@]43C)[C@@H]12 [Compound 15, 28-O-Cinnamoylbetulin] | 72.4 to 236 µM

Query: # input compound: C=C(C)[C@@H]1CC[C@]2(COC(=O)c3cccnc3)CC[C@]3(C)[C@H](CC[C@@H]4[C@@]5(C)CC[C@H](O)C(C)(C)[C@@H]5CC[C@]43C)[C@@H]12 [Compound 14, 28-O-Nicotinoylbetulin] ; wanted: its IC50
Response: 185 to 532 µM

Query: # input compound: C=C(C)[C@@H]1CC[C@]2(COC3CCCCO3)CC[C@]3(C)[C@H](CC[C@@H]4[C@@]5(C)CC[C@H](O)C(C)(C)[C@@H]5CC[C@]43C)[C@@H]12 (some centres unmarked) [Compound 13, 28-(Tetrahydro-2H-pyran-2-yl)betulin] ; wanted: its IC50
Response: 116 to 628 µM

Query: # input compound: C=C(C)[C@@H]1CC[C@]2(COC(=O)CC(C)(C)CC(=O)O)CC[C@]3(C)[C@H](CC[C@@H]4[C@@]5(C)CC[C@H](O)C(C)(C)[C@@H]5CC[C@]43C)[C@@H]12 [Compound 10, 28-O-(3,3-Dimethylglutaroyl)betulin] ; wanted: its IC50
Response: 3 to 5.91 µM

Query: # input compound: C=C(C)[C@@H]1CC[C@]2(C(=O)O)CC[C@]3(C)[C@H](CC[C@@H]4[C@@]5(C)CC[C@H](OC(C)=O)C(C)(C)[C@@H]5CC[C@]43C)[C@@H]12 [Compound 21, 3-O-Acetylbetulinic acid] ; wanted: its IC50
Response: 7.19 to 30.3 µM

Query: # input compound: C=C(C)C1CCC2(C=NO)CCC3(C)C(CCC4C5(C)CCC(O)C(C)(C)C5CCC43C)C12 (centres unmarked) [Compound 6, Betulinaldehyde oxime] ; wanted: its IC50
Response: 360 to 759 µM

Query: # input compound: C=C(C)[C@@H]1CC[C@]2(COC(=O)CCC(=O)O)CC[C@]3(C)[C@H](CC[C@@H]4[C@@]5(C)CC[C@H](O)C(C)(C)[C@@H]5CC[C@]43C)[C@@H]12 [Compound 8, 28-O-Succinoylbetulin] ; wanted: its IC50
Response: 5.35 to 10.6 µM

Query: # input compound: C=C(C)[C@@H]1CC[C@]2(COC(=O)CC(C)(C)CC(=O)O)CC[C@]3(C)[C@H](CC[C@@H]4[C@@]5(C)CC[C@H](OC(=O)CC(C)(C)CC(=O)O)C(C)(C)[C@@H]5CC[C@]43C)[C@@H]12 [Compound 12, 3,28-Di-O-(3,3-dimethylglutaroyl)betulin] ; wanted: its IC50
Response: 4.17 to 10.7 µM

Query: # input compound: C=C(C)[C@@H]1CC[C@]2(C(=O)N[C@@H](CC(=O)OC)C(=O)OC)CC[C@]3(C)[C@H](CC[C@@H]4[C@@]5(C)CCC(=O)C(C)(C)[C@@H]5CC[C@]43C)[C@@H]12 [Compound 19, Betulonoyl dimethyl-L-aspartate] ; wanted: its IC50
Response: 298 to 1430 µM

Query: # input compound: C=C(C)[C@@H]1CC[C@]2(C)CC[C@]3(C)[C@H](CC[C@@H]4[C@@]5(C)CC[C@H](O)C(C)(C)[C@@H]5CC[C@]43C)[C@@H]12 [Compound 3, Lupeol] ; wanted: its IC50
Response: > 1000 µM

Query: # input compound: C=C(C)[C@@H]1CC[C@]2(COC(=O)CCc3ccccc3)CC[C@]3(C)[C@H](CC[C@@H]4[C@@]5(C)CC[C@H](OC(=O)CCc6ccccc6)C(C)(C)[C@@H]5CC[C@]43C)[C@@H]12 [Compound 16, 3,28-Di-O-(dihydrocinnamoyl)betulin] ; wanted: its IC50
Response: 176 to 1230 µM

Query: # input compound: C=C(C)[C@@H]1CC[C@]2(COC(=O)CCC(=O)O)CC[C@]3(C)[C@H](CC[C@@H]4[C@@]5(C)CC[C@H](OC(=O)CCC(=O)O)C(C)(C)[C@@H]5CC[C@]43C)[C@@H]12 [Compound 9, 3,28-Di-O-succinoylbetulin] ; wanted: its IC50
Response: 3.11 to 5.02 µM

Query: # input compound: C=C(C)C1CCC2(CO)CCC3(C)C(CCC4C5(C)CCC(OC(=O)C=Cc6ccc(O)c(O)c6)C(C)(C)C5CCC43C)C12 (centres unmarked) [Compound 27, 3-O-Caffeoylbetulin] ; wanted: its IC50
Response: 85 to 195 µM

Query: # input compound: C=C(C)[C@@H]1CC[C@]2(COC3CCCCO3)CC[C@]3(C)[C@H](CC[C@@H]4[C@@]5(C)CC[C@H](OC(C)=O)C(C)(C)[C@@H]5CC[C@]43C)[C@@H]12 (some centres unmarked) [Compound 23] ; wanted: its IC50
Response: 119 to 947 µM
